The measurements presented in this section are drawn from patent US12582638B2.

System: U87MG
Procedure Summary: Cell viability, CellTiterGlo, 72 hours
Format: cell-based
Cond: Homo sapiens, U-87 MG, U87MG cells, Brain
Quantity Kind: pIC50
Value format note: pIC50 is -log10 of concentration (mol/L); just state the number.

Fill in reported pIC50 for this entry: O=C(NC1CCN(CCCCC2(C(=O)NCC(F)(F)F)c3ccccc3-c3ccccc32)CC1)c1ccccc1-c1ccc(C(F)(F)F)cc1 [lomitapide]
5.51

* * *

Tested on: KARPAS 299
Procedure Summary: Cell viability, CellTiterGlo, 72 hours
Format: cell-based
Cond: Homo sapiens, KARPAS 299 cells, Blood
Quantity Kind: pIC50
Value format note: pIC50 is -log10 of concentration (mol/L); just state the number.

Fill in reported pIC50 for this entry: O=C(NC1CCN(CCCCC2(C(=O)NCC(F)(F)F)c3ccccc3-c3ccccc32)CC1)c1ccccc1-c1ccc(C(F)(F)F)cc1 [lomitapide]
5.85

* * *

Tested on: NCI-H1563
Procedure Summary: Cell viability, CellTiterGlo, 72 hours
Assay type: cell-based
Cond: Homo sapiens, NCI-H1563 cells, Lung
Quantity Kind: pIC50
Value format note: pIC50 is -log10 of concentration (mol/L); just state the number.

Fill in reported pIC50 for this entry: O=C(NC1CCN(CCCCC2(C(=O)NCC(F)(F)F)c3ccccc3-c3ccccc32)CC1)c1ccccc1-c1ccc(C(F)(F)F)cc1 [lomitapide]
5.28

* * *

Test system: NCI-H2110
Procedure Summary: Cell viability, CellTiterGlo, 72 hours
Assay type: cell-based
Cond: NCI-H2110 cells, Lung
Quantity Kind: pIC50
Value format note: pIC50 is -log10 of concentration (mol/L); just state the number.

Fill in reported pIC50 for this entry: O=C(NC1CCN(CCCCC2(C(=O)NCC(F)(F)F)c3ccccc3-c3ccccc32)CC1)c1ccccc1-c1ccc(C(F)(F)F)cc1 [lomitapide]
5.48

* * *

System: PANC-1
Procedure Summary: Cell viability, CellTiterGlo, 72 hours
Assay type: cell-based
Cond: Homo sapiens, PANC-1 cells, Pancreas
Quantity Kind: IC50 (µM)
Just the number in µM, nothing appended.

Fill in reported IC50 for this entry: O=C(NC1CCN(CCCCC2(C(=O)NCC(F)(F)F)c3ccccc3-c3ccccc32)CC1)c1ccccc1-c1ccc(C(F)(F)F)cc1 [lomitapide]
4.5
